pIC50 reference
Molecular target: Human CARM1 (PRMT4) (Homo sapiens, UniProt Q86X55)
Construct: Flag-CARM1-His; made in house; host or cells: HEK 293F cells (BacMam baculovirus)
Sequence (Q86X55 1-585 isoform Q86X55-1): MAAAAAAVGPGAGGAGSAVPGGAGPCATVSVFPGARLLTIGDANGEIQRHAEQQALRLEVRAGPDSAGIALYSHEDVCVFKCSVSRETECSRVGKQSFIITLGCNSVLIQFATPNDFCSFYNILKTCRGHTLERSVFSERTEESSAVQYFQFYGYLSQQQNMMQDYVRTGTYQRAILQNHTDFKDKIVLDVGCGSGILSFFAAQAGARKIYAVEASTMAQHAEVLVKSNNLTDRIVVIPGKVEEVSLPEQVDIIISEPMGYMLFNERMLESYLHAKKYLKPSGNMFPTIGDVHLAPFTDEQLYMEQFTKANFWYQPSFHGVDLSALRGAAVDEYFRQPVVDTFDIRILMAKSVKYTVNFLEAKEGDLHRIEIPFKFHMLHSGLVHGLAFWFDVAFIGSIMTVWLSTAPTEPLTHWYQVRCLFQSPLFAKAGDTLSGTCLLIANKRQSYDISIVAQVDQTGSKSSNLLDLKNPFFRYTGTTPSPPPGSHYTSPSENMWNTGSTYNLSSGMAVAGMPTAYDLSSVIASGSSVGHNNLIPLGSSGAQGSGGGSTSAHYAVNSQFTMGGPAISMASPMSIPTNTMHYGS
Experiment: CARM1 Biochemical Assay
Settings: PRMT4 IC50, biochemical evaluation, CARM1 (PRMT4), peptide substrate
Description: General Materials. […] General Procedure for CARM1 Enzyme Assays on Peptide Substrates. […] The plates were then read in a PerkinElmer TopCount plate reader to measure the quantity of ^3H-labeled peptide bound to the Flashplate surface, measured as disintegrations per minute (dpm) or alternatively, referred to as counts per minute (cpm). […]
pIC50: −log10 of the molar value.

Problem: # input compound: `CNCCN(C)Cc1nn(C(C)C)c2ccc(OCc3ccc(C#N)cc3)cc12` ; wanted: its pIC50
Result: 5.52 to 6.00

Problem: Follow-up item: `CNCCN(C)Cc1n[nH]c2ccc(OCc3cccc(C(F)(F)F)c3)cc12`
Result: 6.00 to 7.00

Problem: // repeat for `CNCCN(C)Cc1n[nH]c2ccc(Oc3ccccc3C)cc12` and report
Result: 6.00 to 7.00

====

molecular target: UniProt Q9NR22; assay: biochemical; conditions: biochemical evaluation, peptide substrate; read-out: PRMT8 IC50
Sequence (Q9NR22 whole entry): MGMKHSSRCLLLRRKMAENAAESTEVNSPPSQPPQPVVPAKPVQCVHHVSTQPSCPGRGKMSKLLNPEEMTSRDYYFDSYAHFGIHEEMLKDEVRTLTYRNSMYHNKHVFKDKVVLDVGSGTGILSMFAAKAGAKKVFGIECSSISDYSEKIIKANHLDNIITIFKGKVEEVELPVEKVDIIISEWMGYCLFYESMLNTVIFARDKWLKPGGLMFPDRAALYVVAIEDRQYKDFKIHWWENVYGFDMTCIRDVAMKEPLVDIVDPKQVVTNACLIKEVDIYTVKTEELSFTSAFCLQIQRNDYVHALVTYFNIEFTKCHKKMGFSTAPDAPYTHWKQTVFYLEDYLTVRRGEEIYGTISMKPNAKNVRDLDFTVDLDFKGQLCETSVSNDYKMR
pIC50: −log10 of the molar value.
QUANTITY NAME: pIC50

Problem: Identify the measured pIC50 of CNCCN(C)Cc1n[nH]c2ccc(OCc3ccn(C)n3)cc12 [Compound 20] for UniProt Q9NR22.
Result: > 7.00

Problem: Check CNCCN(C)Cc1n[nH]c2cccc(OCCC(C)C)c12 [Compound 31] too.
Result: 6.00 to 7.00

Problem: Record: CN(CCN)Cc1n[nH]c2ccc(OCc3ccccc3)cc12 [Compound 1B]
Result: 6.00 to 7.00

Problem: Then what about the compound CNCCN(C)Cc1n[nH]c2cccc(OCCCC(O)CO)c12 (stereo not drawn) [Compound 41] ?
Result: 5.52 to 6.00

Problem: And the next one, CNCCN(C)Cc1n[nH]c2ccc(N3CCCCC3)cc12 [Compound 46] ?
Result: > 7.00

Problem: CC(C)COc1ccc2[nH]nc(CN(C)CCN)c2c1 [Compound 2] , same question.
Result: 6.00 to 7.00

====

target: Human CARM1 (PRMT4) (Homo sapiens, UniProt Q86X55); construct: Flag-CARM1-His; made in house; host or cells: HEK 293F cells (BacMam baculovirus); assay: CARM1 Biochemical Assay; conditions: PRMT4 IC50, biochemical evaluation, CARM1 (PRMT4), peptide substrate
QUANTITY NAME: IC50

Here's what some known entries look like.
CNCCN(C)Cc1n[nH]c2ccc(C(C)C)cc12    1.01 to 3 µM
CNCCN(C)Cc1n[nH]c2ccc(Oc3ccc(OC(C)C)cc3)cc12    3.01 to 10 µM
CNCCN(C)Cc1n[nH]c2ccc(Oc3cccc(C#N)c3)cc12    1.01 to 3 µM

# context switch: different compound, same IC50
Problem: Endpoint output: IC50 of `CNCCN(C)Cc1n[nH]c2ccc(Oc3ccccc3Cl)cc12` . Value?
Result: 0.101 to 1 µM

====

The entries below are paired with their reported IC50.
target: UniProt:Q96LA8; test: biochemical; settings: single experiment or average of multiple experiments; read-out: PRMT6 biochemical evaluation (numerical)
Sequence (Q96LA8 with tags, fused parts or gaps): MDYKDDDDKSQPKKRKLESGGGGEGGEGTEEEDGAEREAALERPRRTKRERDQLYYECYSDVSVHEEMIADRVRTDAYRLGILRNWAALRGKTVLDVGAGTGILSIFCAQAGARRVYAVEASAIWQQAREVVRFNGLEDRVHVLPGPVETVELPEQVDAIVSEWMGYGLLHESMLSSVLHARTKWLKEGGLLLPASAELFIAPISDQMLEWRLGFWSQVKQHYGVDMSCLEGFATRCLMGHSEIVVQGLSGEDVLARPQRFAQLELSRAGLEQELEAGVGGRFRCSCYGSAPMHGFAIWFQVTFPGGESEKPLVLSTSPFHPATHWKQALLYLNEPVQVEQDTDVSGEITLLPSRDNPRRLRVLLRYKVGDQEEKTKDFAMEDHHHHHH
# number only, unit nM dropped from output

CCCOc1ccc2[nH]nc(CN(C)CCNC)c2c1    105
CNCCN(C)Cc1n[nH]c2ccc(Oc3ccccc3Cl)cc12    131

Problem: Looking for the measured IC50 of `CNCCN(C)Cc1n[nH]c2ccc(C3CCOCC3)cc12` , can you help?
Result: 72

Problem: Query `CNCCN(C)Cc1n[nH]c2ccc(Oc3ccccc3OC)cc12` next
Result: 80.3

Problem: Moving on to the next compound: `CC(C)COc1ccc2[nH]nc(CN(C)CCN)c2c1`
Result: 113

Problem: Please do the same for `CNCCN(C)Cc1n[nH]c2ccc(OCCOC)cc12` as well.
Result: 84.8

Problem: Moving on to `CNCCN(C)Cc1n[nH]c2ccc(C3CCCCC3)cc12`
Result: 74.3
